Test system: Hepatitis C virus
assay-details: microbe, parasite or virus in culture
recorded-conditions: genotype 1b, Huh-7, 72 h
outcome-measure: EC50 (nM)
A number alone suffices; assume nM.

Would you please look over these solved cases?
CS(=O)(=O)Nc1ccc2c(c1)S(=O)(=O)N=C(C1=C(O)[C@@H](Cc3ccc(F)cc3)CN(Cc3ccc(F)cc3)C1=O)N2 :: 3600
C[C@@]1(CCC2CC2)CN(C2CCCC2)C(=O)C(C2=NS(=O)(=O)c3cc(NS(C)(=O)=O)ccc3N2)=C1O :: 170
CCC[C@]1(C)CN(C2CCC2)C(=O)C(C2=NS(=O)(=O)c3cc(NS(C)(=O)=O)ccc3N2)=C1O :: 8500

Lab note: next molecule to report on.
get_value(item= `CC(C)CC[C@]1(C)CN(C2CCCCC2)C(=O)C(C2=NS(=O)(=O)c3cc(NS(C)(=O)=O)ccc3N2)=C1O` , readout=EC50) returns 25
